Biological target: Protein-tyrosine kinase 6 (Homo sapiens)
Sequence (Q13882 whole entry): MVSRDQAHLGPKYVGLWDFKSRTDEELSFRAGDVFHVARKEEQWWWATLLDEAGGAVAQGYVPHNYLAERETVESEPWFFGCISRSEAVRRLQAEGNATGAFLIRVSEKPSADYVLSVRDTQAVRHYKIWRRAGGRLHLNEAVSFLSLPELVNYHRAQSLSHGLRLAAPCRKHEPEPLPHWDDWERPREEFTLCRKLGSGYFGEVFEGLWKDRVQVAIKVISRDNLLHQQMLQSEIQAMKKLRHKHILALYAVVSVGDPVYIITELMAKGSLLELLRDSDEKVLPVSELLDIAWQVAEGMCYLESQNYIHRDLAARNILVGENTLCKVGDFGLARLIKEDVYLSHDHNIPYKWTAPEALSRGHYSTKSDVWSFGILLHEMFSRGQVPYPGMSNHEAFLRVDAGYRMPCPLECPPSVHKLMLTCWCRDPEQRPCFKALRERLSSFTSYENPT
pIC50: −log10 of the molar value.
parameter: pIC50

{"smiles-repr": "C/C(O)=C(\\C#N)C(=O)Nc1cc(Br)ccc1Br", "experimental-system": "Protein-tyrosine kinase 6 (Homo sapiens)", "observed-result": 3.57}

###

Target: Serine/threonine-protein kinase PLK3 (Homo sapiens)
Sequence (Q9H4B4 whole entry): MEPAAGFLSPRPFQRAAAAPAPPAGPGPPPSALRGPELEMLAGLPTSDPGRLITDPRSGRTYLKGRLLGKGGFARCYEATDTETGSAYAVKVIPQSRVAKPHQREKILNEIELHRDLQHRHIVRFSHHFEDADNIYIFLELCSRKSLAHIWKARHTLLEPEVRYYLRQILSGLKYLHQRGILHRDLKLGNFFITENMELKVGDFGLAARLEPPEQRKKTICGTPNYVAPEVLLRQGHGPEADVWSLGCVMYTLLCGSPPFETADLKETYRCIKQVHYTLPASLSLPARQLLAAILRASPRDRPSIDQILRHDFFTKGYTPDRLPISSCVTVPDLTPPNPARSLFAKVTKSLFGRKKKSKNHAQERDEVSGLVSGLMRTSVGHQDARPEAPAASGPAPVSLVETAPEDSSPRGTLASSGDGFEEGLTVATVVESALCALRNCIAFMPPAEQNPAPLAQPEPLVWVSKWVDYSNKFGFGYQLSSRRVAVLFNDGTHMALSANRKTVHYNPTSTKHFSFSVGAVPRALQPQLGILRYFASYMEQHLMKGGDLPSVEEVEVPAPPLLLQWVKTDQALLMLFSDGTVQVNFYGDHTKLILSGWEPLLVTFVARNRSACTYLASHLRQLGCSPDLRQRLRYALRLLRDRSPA
Experiment: Inhibition of human PLK3 in presence of 25 uM ATP
parameter: IC50

{"smiles-repr": "C/C(O)=C(\\C#N)C(=O)Nc1cc(Br)ccc1Br", "experimental-system": "Serine/threonine-protein kinase PLK3 (Homo sapiens)", "parameter": "IC50", "observed-result": "61 µM"}

###

Target: Mitogen-activated protein kinase 14 (Homo sapiens, UniProt Q16539)
Sequence (Q16539 whole entry): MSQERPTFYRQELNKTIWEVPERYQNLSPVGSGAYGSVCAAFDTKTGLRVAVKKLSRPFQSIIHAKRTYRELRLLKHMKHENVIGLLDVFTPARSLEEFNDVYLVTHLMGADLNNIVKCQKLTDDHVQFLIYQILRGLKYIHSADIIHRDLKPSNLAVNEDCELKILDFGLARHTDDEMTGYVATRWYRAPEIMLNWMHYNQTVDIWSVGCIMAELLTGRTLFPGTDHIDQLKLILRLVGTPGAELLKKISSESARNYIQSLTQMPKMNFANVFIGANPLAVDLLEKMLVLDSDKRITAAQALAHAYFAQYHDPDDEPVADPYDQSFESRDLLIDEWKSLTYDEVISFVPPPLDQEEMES
Assay: Inhibition of SAPK2a
parameter: IC50

{"smiles-repr": "C/C(O)=C(\\C#N)C(=O)Nc1cc(Br)ccc1Br", "experimental-system": "Mitogen-activated protein kinase 14 (Homo sapiens, UniProt Q16539)", "parameter": "IC50", "observed-result": "> 500 µM"}
